# study-system: T1, human GIP receptor (human, UniProt P48546 22-466)
# T1 sequence (looked up): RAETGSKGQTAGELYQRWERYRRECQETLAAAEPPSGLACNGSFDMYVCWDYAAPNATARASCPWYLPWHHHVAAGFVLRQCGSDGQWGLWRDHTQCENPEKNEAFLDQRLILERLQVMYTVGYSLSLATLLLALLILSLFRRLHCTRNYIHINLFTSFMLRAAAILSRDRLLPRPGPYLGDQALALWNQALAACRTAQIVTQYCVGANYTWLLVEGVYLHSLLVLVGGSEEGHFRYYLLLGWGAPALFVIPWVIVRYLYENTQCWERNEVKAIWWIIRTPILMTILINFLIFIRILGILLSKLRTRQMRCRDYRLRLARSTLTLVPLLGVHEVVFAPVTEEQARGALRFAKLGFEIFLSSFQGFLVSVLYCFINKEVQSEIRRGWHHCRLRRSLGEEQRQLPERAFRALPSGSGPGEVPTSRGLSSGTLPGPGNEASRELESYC
# measurement-description: cell-based or functional assay
Bridge positions count the residues as written; N and C are the ends. Square brackets hold non-standard residues; d marks the D form. Ends that are not written are not given here. * marks the point of attachment. Acetyl(2-(4-imidazolyl)) = O=C(Cc1c[nH]cn1)*; Aib = CC(C)(N)C(=O)O
Attribute: In vitro activity compared to native-type peptide (%), vs GIP
The figure you give is taken to be in %; do not add the unit.

Solved cases (8 shown):
{Acetyl(2-(4-imidazolyl))}-[Aib]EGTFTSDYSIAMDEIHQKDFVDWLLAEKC (bridge 15-19) [triple agonist of SEQ ID NO: 91]    0.3
{Acetyl(2-(4-imidazolyl))}-[Aib]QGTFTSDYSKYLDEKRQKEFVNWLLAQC (bridge 15-19) [triple agonist of SEQ ID NO: 86]    0.2
Y[Aib]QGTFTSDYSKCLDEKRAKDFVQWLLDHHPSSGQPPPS (bridge 16-20) [triple agonist of SEQ ID NO: 70]    64.4
Y[Aib]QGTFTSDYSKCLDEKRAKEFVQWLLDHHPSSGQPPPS (bridge 16-20) [triple agonist of SEQ ID NO: 22]    59.7
H[Aib]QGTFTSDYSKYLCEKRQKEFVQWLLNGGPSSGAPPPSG (bridge 16-20) [triple agonist of SEQ ID NO: 36]    0.2
Y[Aib]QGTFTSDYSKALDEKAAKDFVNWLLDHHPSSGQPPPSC (bridge 16-20) [triple agonist of SEQ ID NO: 99]    57.7
H[Aib]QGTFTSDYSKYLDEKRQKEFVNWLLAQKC (bridge 16-20) [triple agonist of SEQ ID NO: 34]    0.6
Y[Aib]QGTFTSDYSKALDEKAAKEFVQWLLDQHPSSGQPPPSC (bridge 16-20) [triple agonist of SEQ ID NO: 100]    118

Which In vitro activity compared to native-type peptide (%), vs GIP is reported for this binder? {Acetyl(2-(4-imidazolyl))}-[Aib]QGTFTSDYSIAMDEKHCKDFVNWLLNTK (bridge 15-19) [triple agonist of SEQ ID NO: 60]
8.2
